Value source: patent US8871208B2

Biological target: truncated human 11β-HSD-1 enzyme (24-287AA) (Homo sapiens, UniProt P28845)
Construct: truncated human 11β-HSD-1 enzyme (24-287AA); made in house; host or cells: E. coli (lysate)
Sequence (P28845 24-287): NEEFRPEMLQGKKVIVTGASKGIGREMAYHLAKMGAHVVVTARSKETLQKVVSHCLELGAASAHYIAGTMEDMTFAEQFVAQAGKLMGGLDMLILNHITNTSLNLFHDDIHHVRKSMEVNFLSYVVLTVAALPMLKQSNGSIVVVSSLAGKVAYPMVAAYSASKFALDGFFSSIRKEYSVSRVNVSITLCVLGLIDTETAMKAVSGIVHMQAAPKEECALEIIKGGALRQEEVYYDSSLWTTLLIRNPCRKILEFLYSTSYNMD
Assay: Human 11β-HSD-1 enzymatic SPA assay
Format: biochemical
Observation type: IC50 (nM)

CC1(C)C(=O)N(C2C3CCCC2CC(C(N)=O)C3)CC1COc1ccc(C#N)cn1 (stereo not shown)	51

A. O=C(CN1CCN(c2ccc(C(F)(F)F)cn2)CC1)N[C@H]1[C@@H]2C[C@@H]3C[C@H]1C[C@@](F)(C3)C2
B. CC1(C)C(=O)N(C2C3CC4CC2CC(C(N)=O)(C4)C3)CC1COc1ccc(-n2cncn2)cc1 (stereo not shown)
C. O=C(CN1CCN(c2ccc(C(F)(F)F)cn2)CC1)NC1C2CC3CC1CC(F)(C3)C2 (stereo not shown)
Sort by IC50, descending. Show the ranking through the labels, in the order asked for.
C, A, B
